Biological target: UniProt P08183
Sequence (P08183 whole entry): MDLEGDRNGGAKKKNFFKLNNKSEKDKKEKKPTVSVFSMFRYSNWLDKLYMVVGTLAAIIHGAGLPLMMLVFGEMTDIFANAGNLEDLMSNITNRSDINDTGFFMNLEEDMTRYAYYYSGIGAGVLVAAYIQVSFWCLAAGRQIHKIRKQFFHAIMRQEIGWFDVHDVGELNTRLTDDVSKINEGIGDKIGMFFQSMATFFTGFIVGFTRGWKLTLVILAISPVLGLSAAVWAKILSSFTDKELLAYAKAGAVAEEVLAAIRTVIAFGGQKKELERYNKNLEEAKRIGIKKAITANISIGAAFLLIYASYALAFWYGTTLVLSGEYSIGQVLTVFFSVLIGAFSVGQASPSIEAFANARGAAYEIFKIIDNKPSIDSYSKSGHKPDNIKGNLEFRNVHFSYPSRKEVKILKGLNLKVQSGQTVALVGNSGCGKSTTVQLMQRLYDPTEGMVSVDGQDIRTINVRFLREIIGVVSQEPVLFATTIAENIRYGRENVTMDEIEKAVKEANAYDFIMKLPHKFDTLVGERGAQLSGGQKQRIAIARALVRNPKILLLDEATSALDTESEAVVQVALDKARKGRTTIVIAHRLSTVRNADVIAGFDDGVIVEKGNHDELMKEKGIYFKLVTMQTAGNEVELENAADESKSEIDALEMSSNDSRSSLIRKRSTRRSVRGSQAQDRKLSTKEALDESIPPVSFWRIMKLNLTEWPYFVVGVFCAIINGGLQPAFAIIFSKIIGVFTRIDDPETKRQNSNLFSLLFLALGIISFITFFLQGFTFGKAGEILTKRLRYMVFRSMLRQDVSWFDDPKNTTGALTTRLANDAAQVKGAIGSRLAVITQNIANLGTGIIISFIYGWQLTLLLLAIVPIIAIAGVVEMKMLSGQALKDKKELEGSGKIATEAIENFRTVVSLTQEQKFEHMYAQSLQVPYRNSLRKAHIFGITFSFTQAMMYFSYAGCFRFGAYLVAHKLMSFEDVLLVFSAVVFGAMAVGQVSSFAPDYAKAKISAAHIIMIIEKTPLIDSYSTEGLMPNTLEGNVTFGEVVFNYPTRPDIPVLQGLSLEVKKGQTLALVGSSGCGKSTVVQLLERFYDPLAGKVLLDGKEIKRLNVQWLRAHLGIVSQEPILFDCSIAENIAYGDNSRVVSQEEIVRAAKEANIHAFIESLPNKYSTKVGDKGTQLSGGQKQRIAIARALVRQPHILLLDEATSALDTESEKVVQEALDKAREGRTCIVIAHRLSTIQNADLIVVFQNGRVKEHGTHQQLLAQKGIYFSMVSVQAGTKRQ
Assay: P-glycoprotein inhibitory activity: MTT cell growth assay in P-gp overexpressing MES-SA/DX5 cells with docetaxel or paclitaxel
Details: 3 days, with 100 nM docetaxel or 200 nM paclitaxel, MTT readout
pEC50: −log10 of the molar value.
Would you mind telling me the reported pEC50 of each entry?

COc1cc2c(cc1OC)CN(CCc1ccc(-n3nnc(-c4cc(OCc5cccnc5)c(OC)cc4NC(=O)c4cc(=O)c5ccccc5o4)n3)cc1)CC2 [Compound 30]	> 7.00
COc1cc2c(cc1OC)CN(CCc1ccc(NC(=O)c3cc(OC)c(OC)cc3NC(=O)c3cnc4ccccc4c3)cc1)CC2 [Tariquidar, reference compound]	> 7.00
COc1cc(NC(=O)c2cc(=O)c3ccccc3o2)c(-c2nnn(-c3ccc(CCN4CCc5cnccc5C4)cc3)n2)cc1OC [Compound 7]	6.60 to 7.00
COc1cc2c(cc1OC)CN(CCc1ccc(-n3nnc(-c4cc(OC)c(OC)cc4NC(=O)c4ccc(-c5ccncc5)cc4)n3)cc1)CC2 [Compound 21]	> 7.00
COc1cc(NC(=O)c2cnc3ccccc3n2)c(-c2nnn(-c3ccc(CCN4CCc5cnccc5C4)cc3)n2)cc1OC [Compound 9]	< 6.00
COc1cc2c(cc1OC)CN(CCc1ccc(-n3nnc(-c4cc(OC)c(OC)cc4NC(=O)c4ccc(-c5cccnc5)cc4)n3)cc1)CC2 [Compound 22]	6.60 to 7.00

Please supply pEC50 for each of the following items, keeping them in order.
1. COc1cc2c(cc1OC)CN(CCc1ccc(-n3nnc(-c4cc(OCc5ccncc5)ccc4NC(=O)c4cc(=O)c5ccccc5o4)n3)cc1)CC2 [Compound 26]
2. COc1cc(NC(=O)c2cc(=O)c3ccccc3o2)c(-c2nnn(-c3ccc(CCN4CCc5cc(OC)c(OCCn6ccnc6)cc5C4)cc3)n2)cc1OC [Compound 14]
3. COc1cc2c(cc1OC)CN(CCc1ccc(-n3nnc(-c4cc(OC)c(OC)cc4NC(=O)c4cc(=O)c5cc(-n6ccnc6)ccc5o4)n3)cc1)CC2 [Compound 20]
4. COc1cc2c(cc1OC)CN(CCc1ccc(-n3nnc(-c4cc(Oc5cccnc5)ccc4NC(=O)c4cc(=O)c5ccccc5o4)n3)cc1)CC2 [Compound 24]

Reply:
["> 7.00", "< 6.00", "< 6.00", "> 7.00"]

Hi, could you look up pEC50 for each item in my list?
1. COc1cc2c(cc1OC)CN(CCc1ccc(-n3nnc(-c4cc(OC)c(OC)cc4NC(=O)c4cc(=O)c5ccccc5o4)n3)cc1)CC2 [Encequidar methanesulfonate monohydrate, reference compound]
2. COc1cc(NC(=O)c2cc(=O)c3ccc(C)cc3o2)c(-c2nnn(-c3ccc(CCN(Cc4cccc(-n5ccnc5)c4)Cc4ccc5c(cnn5C)c4)cc3)n2)cc1OC [Compound 5]
3. COC(=O)c1ccc(-c2nnn(-c3ccc(CCN(C)Cc4ccc5c(cnn5C)c4)cc3)n2)c(NC(=O)c2cc(=O)c3ccccc3o2)c1 [Compound 15]
4. COc1cc2c(cc1OC)CN(CCc1ccc(-n3nnc(-c4cc(OC)c(OC)cc4NC(=O)c4cc(=O)c5cc(-c6ccncc6)ccc5o4)n3)cc1)CC2 [Compound 19]

Reply:
1: > 7.00; 2: < 6.00; 3: > 7.00; 4: < 6.00

List pEC50 for every entry below, keeping the order given.
1. COc1cc2c(cc1OC)CN(CCc1ccc(-n3nnc(-c4cc(OCc5ccccc5)c(OC)cc4NC(=O)c4cc(=O)c5ccccc5o4)n3)cc1)CC2 [Compound 29]
2. COc1cc(NC(=O)c2cnc3ccccc3c2)c(-c2nnn(-c3ccc(CCN4CCc5cnccc5C4)cc3)n2)cc1OC [Compound 2]
3. COc1cc(NC(=O)c2cnc3ccccc3c2)c(-c2nnn(-c3ccc(CCN4CCc5cnccc5C4)cc3)n2)cc1OCc1ccccc1 [Compound 13]
4. COc1cc(NC(=O)c2cc(=O)c3ccccc3o2)c(-c2nnn(-c3ccc(CCN4CCn5cncc5C4)cc3)n2)cc1OCc1ccccc1 [Compound 18]
5. COc1cc(NC(=O)c2cnc3ccccc3c2)c(-c2nnn(-c3ccc(CCN(Cc4cccc(-n5ccnc5)c4)Cc4ccc5c(cnn5C)c4)cc3)n2)cc1OC [Compound 4]

Reply:
> 7.00
6.60 to 7.00
> 7.00
> 7.00
6.00 to 6.30

Hey, can you go through the list below and give me pEC50 for every item?
1. COc1cc(NC(=O)c2cc(=O)c3ccccc3o2)c(-c2nnn(-c3ccc(CCN4CCc5ccncc5C4)cc3)n2)cc1OC [Compound 6]
2. COc1cc(NC(=O)c2cc(=O)c3ccccc3o2)c(-c2nnn(-c3ccc(CCN(Cc4cccc(-n5ccnc5)c4)Cc4ccc5c(cnn5C)c4)cc3)n2)cc1OC [Compound 3]
3. COc1cc(NC(=O)c2cc(=O)c3ccccc3o2)c(-c2nnn(-c3ccc(CCN4CCn5cncc5C4)cc3)n2)cc1OC [Compound 1]
4. COc1cc2c(cc1OC)CN(CCc1ccc(-n3nnc(-c4cc(OC)c(OC)cc4NC(=O)c4ccc(-n5ccnc5)cc4)n3)cc1)CC2 [Compound 23]
5. COc1cc2c(cc1OC)CN(CCc1ccc(-n3nnc(-c4cc(Oc5ccncc5)ccc4NC(=O)c4cc(=O)c5ccccc5o4)n3)cc1)CC2 [Compound 25]

Reply:
6.60 to 7.00
< 6.00
< 6.00
6.30 to 6.60
6.00 to 6.30
